# maps each entry to its 3H-thymidine uptake
System: human allogenic MLR (peripheral blood lymphocytes)
Assay: human allogenic MLR-suppressive activity
Format: cell-based
Settings: donor A/donor B; 0.001 μg/ml
Procedure: The human allogenic MLR-suppressive activity was assayed as follows: […] After termination of the culture, 1.0 μCi/well of ^3 H-thymidine was added, and after 18 hours of culture, the cells were harvested by a cell-harvester. The radioactivity incorporated into the cells was measured by a liquid scintillation counter as the index of blastogenic response of lymphocytes in human allogenic MLR. […]

A selection of reference data follows.
Requested read-out 3H-thymidine uptake, target or system human allogenic MLR (peripheral blood lymphocytes), entry CCCCCCC(=O)CCCCCCCCCC(O)C(O)C(N)(CO)C(=O)O (stereo not shown) 14690 cpm

Similarly, CCCCCCC(O)CCCCCC/C=C/CC(O)C(O)C(N)(CO)C(=O)O (stereo not shown) ? 11753 cpm

Now the same for CCCCCCC(=O)CCCCCC/C=C/CC1OC(=O)C(N)(CO)C1O (stereo not shown) 13715 cpm

***
Please tell me: 3H-thymidine uptake of CCCCCCC(=O)CCCCCC/C=C/CC(O)C(O)C(N)(CO)C(=O)O (stereo not shown) , system human allogenic MLR (peripheral blood lymphocytes)? 7190 cpm

----------
test system: human allogenic MLR (peripheral blood lymphocytes); test: human allogenic MLR-suppressive activity; format: cell-based; conditions: Homo sapiens, Lymphocyte, donor C/donor D; 0.1 μg/ml; read-out: Suppression
readout-type: inhibition at 0.1 µg/mL

Some entries whose results are on file:
If you can, please state the reported inhibition at 0.1 µg/mL value of CCCCCCC(=O)CCCCCCCCCC(O)C(O)C(N)(CO)C(=O)O (stereo not shown) . 84.7%

Now this one: CCCCCCC(O)CCCCCC/C=C/CC(O)C(O)C(N)(CO)C(=O)O (stereo not shown) 80.3%

And then CCCCCCC(=O)CCCCCC/C=C/CC1OC(=O)C(N)(CO)C1O (stereo not shown) , what is it? 84.9%

More entries:
Quick check: inhibition at 0.1 µg/mL of CCCCCCC(=O)CCCCCC/C=C/CC(O)C(O)C(N)(CO)C(=O)O (stereo not shown) ? 79.2%

----------
test: in vitro; assay type: cell-based, human; settings: human, k562 cells, 0.1 μg/ml; read-out: Suppression
Label scheme for cytotoxicity at 72 h: lower than 10% is label 0, 10% and above is label 1.

Check the entry CCCCCCC(=O)CCCCCC/C=C/CC1OC(=O)C(N)(CO)C1O (centres unmarked) [Example 4] : does cytotoxicity at 72 h equal or exceed 10%? label 1

# repeat for CCCCCCC(=O)CCCCCC/C=C/CC1OC(=O)C(CO)(NC(C)=O)C1O (centres unmarked) [Example 11] label 1

Follow-up entry: CCCCCCC(=O)CCCCCCCCCC(O)C(O)C(N)(CO)C(=O)O (centres unmarked) [Example 5] label 0

Others:
Check this compound for cytotoxicity at 72 h at or above 10%: CCCCCCC(O)CCCCCCCCCC(O)C(O)C(N)(CO)C(=O)O (centres unmarked) [Example 9] label 0

Same question for CCCCCCC(=O)CCCCCCCCCC1OC(=O)C(N)(CO)C1O (centres unmarked) [Example 7] please. label 0

Follow-up item: CCCCCCC(O)CCCCCCCCCC1OC(=O)C(N)(CO)C1O (centres unmarked) [Example 10] label 0

Repeat for the following compound: CCCCCCC(O)CCCCCC/C=C/CC1OC(=O)C(N)(CO)C1O (centres unmarked) [Example 8] label 1

Then what about the compound CCCCCCC(O)CCCCCC/C=C/CC(O)C(O)C(N)(CO)C(=O)O (centres unmarked) [Example 6] ? label 0

----------
test: cytotoxicity to mouse L929 cells; type: cell-based; details: mouse, l929 cells, 0.1 μg/ml; read-out: Suppression
Here, each record is paired with measured cytotoxicity at 48 h data.
The reply should be a number in %, with the unit left off.

Here are 2 compounds together with their reported answers.
Please report the recorded cytotoxicity at 48 h for CCCCCCC(=O)CCCCCCCCCC(O)C(O)C(N)(CO)C(=O)O (stereo not drawn) . 0

Same question, CCCCCCC(O)CCCCCC/C=C/CC(O)C(O)C(N)(CO)C(=O)O (stereo not drawn) this time 0

Now, please, on to the next compound.
Report cytotoxicity at 48 h for CCCCCCC(=O)CCCCCCCCCC1OC(=O)C(N)(CO)C1O (stereo not drawn) please. 0

----------
system: K562; test: in vitro; format: cell-based, human; conditions: 0.1 μg/ml
readout-type: Absorbancy
Returns: the value as a bare number; no unit string appended.

Worked examples follow.
Which Absorbancy value belongs to CCCCCCC(O)CCCCCC/C=C/CC(O)C(O)C(N)(CO)C(=O)O (stereo not drawn) [Example 6] ? 0.823

For CCCCCCC(O)CCCCCCCCCC(O)C(O)C(N)(CO)C(=O)O (stereo not drawn) [Example 9] then? 0.378

And for CCCCCCC(=O)CCCCCC/C=C/CC1OC(=O)C(N)(CO)C1O (stereo not drawn) [Example 4] ? 0.524

Lookup CCCCCCC(=O)CCCCCC/C=C/CC1OC(=O)C(CO)(NC(C)=O)C1O (stereo not drawn) [Example 11] 0.317

Field entry: CCCCCCC(=O)CCCCCCCCCC(O)C(O)C(N)(CO)C(=O)O (stereo not drawn) [Example 5] 0.823

Another: CCCCCCC(O)CCCCCC/C=C/CC1OC(=O)C(N)(CO)C1O (stereo not drawn) [Example 8] 0.327

Can you handle CCCCCCC(=O)CCCCCCCCCC1OC(=O)C(N)(CO)C1O (stereo not drawn) [Example 7] next? 0.387

Record: CCCCCCC(O)CCCCCCCCCC1OC(=O)C(N)(CO)C1O (stereo not drawn) [Example 10] 0.390

Next molecule, Absorbancy to be filled in.
Give its Absorbancy value. Item: CCCCCCC(=O)CCCCCC/C=C/CC(O)C(O)C(N)(CO)C(=O)O (stereo not drawn) [Example 1] 0.886

----------
experiment: in vitro; format: cell-based, human; settings: human, kb cells, 0.1 μg/ml; read-out: Suppression
readout-type: cytotoxicity at 72 h (%)
Reply numerically in %, unit not repeated.

Before answering, review these 4 worked examples.
So what does the record say about cytotoxicity at 72 h for CCCCCCC(=O)CCCCCC/C=C/CC1OC(=O)C(CO)(NC(C)=O)C1O (centres unmarked) [Example 11] ? 7

// query: CCCCCCC(O)CCCCCCCCCC1OC(=O)C(N)(CO)C1O (centres unmarked) [Example 10] 0

Now this one: CCCCCCC(O)CCCCCC/C=C/CC1OC(=O)C(N)(CO)C1O (centres unmarked) [Example 8] 0

Ok, now CCCCCCC(=O)CCCCCCCCCC(O)C(O)C(N)(CO)C(=O)O (centres unmarked) [Example 5] 0

Next:
Which value of cytotoxicity at 72 h has been reported for CCCCCCC(=O)CCCCCCCCCC1OC(=O)C(N)(CO)C1O (centres unmarked) [Example 7] in the records? 0.5

----------
assay: in vitro; type: cell-based, human; conditions: human, k562 cells, 10.0 μg/ml; read-out: Suppression
readout-type: cytotoxicity at 72 h

I would be grateful if you could share the reported cytotoxicity at 72 h for CCCCCCC(=O)CCCCCC/C=C/CC1OC(=O)C(N)(CO)C1O (centres unmarked) . 14.5%

// next record CCCCCCC(O)CCCCCC/C=C/CC(O)C(O)C(N)(CO)C(=O)O (centres unmarked) 3%

Try CCCCCCC(O)CCCCCC/C=C/CC1OC(=O)C(N)(CO)C1O (centres unmarked) next. 22.6%

----------
tested on: PC-14; assay: in vitro; type: cell-based, human; conditions: 1.0 μg/ml
Recorded Absorbancy, one value per entry.

Bench note: what Absorbancy did CCCCCCC(=O)CCCCCCCCCC(O)C(O)C(N)(CO)C(=O)O (stereo not drawn) show? 0.396

Proceed to CCCCCCC(=O)CCCCCCCCCC1OC(=O)C(N)(CO)C1O (stereo not drawn) 0.424

And the next one, CCCCCCC(O)CCCCCCCCCC1OC(=O)C(N)(CO)C1O (stereo not drawn) ? 0.411

What do you have for CCCCCCC(O)CCCCCC/C=C/CC(O)C(O)C(N)(CO)C(=O)O (stereo not drawn) ? 0.405

Follow-up entry: CCCCCCC(O)CCCCCC/C=C/CC1OC(=O)C(N)(CO)C1O (stereo not drawn) 0.425

Continuing:
Using the record for CCCCCCC(=O)CCCCCC/C=C/CC1OC(=O)C(N)(CO)C1O (stereo not drawn) , report its Absorbancy. 0.679

Repeat for the following compound: CCCCCCC(=O)CCCCCC/C=C/CC1OC(=O)C(CO)(NC(C)=O)C1O (stereo not drawn) 0.413

What do we get for CCCCCCC(O)CCCCCCCCCC(O)C(O)C(N)(CO)C(=O)O (stereo not drawn) ? 0.441

Okay, and CCCCCCC(=O)CCCCCC/C=C/CC(O)C(O)C(N)(CO)C(=O)O (stereo not drawn) ? 0.732
